System: SK-MEL-5
Assay: NCI tumour cell line growth inhibition, 48 h
The source made the active and inactive calls. No stated cut-off is given here; in the data, active = GI50 up to about 1.1 µM and inactive = higher.
Entry note: the call must match one of Y = active, N = inactive

Below are worked cases with known answers.
Cc1ccc(S(=O)(=O)c2ccccc2[N+](=O)[O-])cc1 :: N
Cc1[nH]c2ccccc2c1C1Cc2ccccc2N1C(=O)/C=C/C=C/c1ccccc1 (stereo not given) :: N
CCOC(=O)c1cc(C2CCN(Cc3ccccc3)C2=O)c(C(=O)C(=[N+]=[N-])C(C)=O)[nH]1 (stereo not given) :: N
O=P1(Cc2ccccc2)c2ccccc2-c2ccccc21 :: N
O=C(CCCn1cnc([N+](=O)[O-])n1)NCCn1ccnc1[N+](=O)[O-] :: N

Please state the recorded outcome for this compound: O=C(OCCN=C1c2ccccc2CCc2ccccc21)c1cc([N+](=O)[O-])cc([N+](=O)[O-])c1
N

Dear colleague, could you share the recorded outcome for CCCCC(=O)Oc1ccc2c(C)cc(=O)oc2c1 when you have a moment?
N

====

Answer each item with its documented GI50.
System: SK-MEL-2
Test: NCI tumour cell line growth inhibition, 48 h
Active and inactive are the calls of the source. Rule as the data show it: active = GI50 up to about 1.1 µM and inactive = higher.

I have 2 compounds here; please give me GI50 for each one.
1. NC(CC(O)(c1ccccc1)c1ccccc1)c1ccccc1S (stereo not drawn)
2. S=C(/N=c1\sc(NCc2ccccc2)nc2sc3c(c12)CCN(N1CCc2c(sc4nc(NCc5ccccc5)s/c(=N\C(=S)NCc5ccccc5)c24)C1)C3)NCc1ccccc1

1: 15.9 µM (inactive); 2: 58.3 µM (inactive)

Give one value of GI50 per listed compound.
1. O=C(O)c1ccc(O)c(/N=N/c2cc(S(=O)(=O)O)c3ccccc3c2O)c1
2. C=C1CC(CC)(CCN2C(=O)c3ccccc3C2=O)OC1=O (stereo not drawn)
3. OC(c1cc2ccc(C(F)(F)F)cc2c2cc(C(F)(F)F)ccc12)C1CCCCN1 (stereo not drawn)
4. COc1cc(-c2cc(=O)c3c(OC)c(OC)c(OC)c(OC)c3o2)c(OC)c(OC)c1OC
5. OC(COc1cccc2ccccc12)CN1CCOCC1 (stereo not drawn)
6. Cc1ccccc1-n1c(=O)sc2c(=O)n(-c3ccccc3)c(=S)[nH]c21
7. O=c1oc2ccc([N+](=O)[O-])cc2c(Nc2ccc3c(c2)Oc2ccccc2O3)c1[N+](=O)[O-]

["> 10 µM (inactive)", "12.9 µM (inactive)", "1.91 µM (inactive)", "20.5 µM (inactive)", "> 100 µM (inactive)", "> 100 µM (inactive)", "21.3 µM (inactive)"]

For every record below, what is its GI50?
1. CC1=NN(C(=O)CSc2nc3ccc(I)cc3c(=O)n2Cc2ccccc2)C(=O)C1
2. C=C1[C@H](OCC(C)C)[C@@H](OCC(C)C)[C@@H](O)C(C)(C)/C=C/[C@H](C)C(=O)[C@@]2(O)C[C@H](C)[C@H](O)[C@@H]2[C@H]1OCC(C)C
3. N#CC(C(=N/O)/C(=N\O)C(C#N)c1ccccc1)c1ccccc1 (stereo not drawn)
4. O=C(CC1(O)C(=O)Nc2ccc(Br)cc21)c1ccc(Cl)cc1Cl (stereo not drawn)

["17.2 µM (inactive)", "> 7.5 µM (inactive)", "> 100 µM (inactive)", "31.7 µM (inactive)"]

====

System: UO-31
Experiment: NCI tumour cell line growth inhibition, 48 h
Active and inactive are the calls of the source. Cut-off read from the data, not from the text of the source: active = GI50 up to about 1.1 µM and inactive = higher.
Provide the reported GI50 of each item.

C[C@@H](NC1CCCC[C@H]1O)c1ccccc1 (some centres undefined) :: > 100 µM (inactive)
CCCCCCCC(CC(=O)NC(CO)C(=O)NC(CO)CC(C)C)OC(=O)CC(CCCCCCC)OC(=O)CC(CCCCCCC)OC1OC(C)C(O)C(OC2OC(C)C(OC(C)=O)C(O)C2O)C1O (centres undefined) :: 15.4 µM (inactive)
CC1(C)CCCC2(C)C3=C(CCC12)C(=O)OC3 (centres undefined) :: 38.9 µM (inactive)
Nc1ncnc2ccc(Sc3ccc4ncnc(N)c4c3)cc12 :: > 100 µM (inactive)
CC1(C)CN(CC(=O)O)CC(Cc2ccc(OCC(=O)O)cc2)N(CC(=O)O)CC(C)(C)SS1 (centres undefined) :: > 100 µM (inactive)

Parameters: items (list). Returns: GI50 for each item.
1. C=CCOC1OC(CO[Si](C)(C)C(C)(C)C)C(OCc2ccccc2)C(OCc2ccccc2)C1OCc1ccccc1 (centres undefined)
2. O=S(=O)(O)c1ccc2cc(/N=N/c3c(O)ccc4ccccc34)ccc2c1
3. CS(=O)(=O)c1ccc(C2=C(c3ccccc3)C(=O)OC2)cc1
4. O=C(O)/C(=C\c1ccccc1Cl)S(=O)(=O)c1ccccc1
5. c1ccc2c(c1)CC1c3[nH]c4ccccc4c3CCN21 (centres undefined)

1: 46.1 µM (inactive); 2: > 100 µM (inactive); 3: > 100 µM (inactive); 4: > 100 µM (inactive); 5: > 10 µM (inactive)

Give me GI50 for each of these compounds, listed below.
1. CC(CC(=O)Nc1ccc(NC(=O)CC(C)/N=N\C(N)=O)cc1)/N=N\C(N)=O (centres undefined)
2. O=C1/C(=C/c2cccc([N+](=O)[O-])c2)N=C(c2ccccc2)N1c1nc2c(Cl)cc(Cl)cc2s1

1: > 100 µM (inactive); 2: 21.8 µM (inactive)

Quick one: give me GI50 for each item below, same order please.
1. COc1ccc2c(O)c(S(=O)(=O)c3ccc(C)cc3)c(=O)oc2c1OC
2. CCOC(=O)NC(=O)c1cn(C2OC(CO)C(O)C2O)c(=O)[nH]c1=O (centres undefined)

["> 100 µM (inactive)", "> 100 µM (inactive)"]
